For each entry below, report its fraction unbound at 4 h, 1 ug/ml value.
Experiment: Protein binding in human plasma at 1 ug/ml incubated for 4 hrs by LC-MS analysis
Type: ADME, cell-free
Settings: at 1 µg/mL, read-out: PPB (converted)
Numbers only.

Solved cases below.
* CN1CCNC(=O)COc2ccc(F)cc2C(=O)N2CCCC[C@H]2c2cc3nc(N4CCC4)cc1n3n2 | 0.13
* Cc1ccc2c(c1)C(=O)N1CCCC[C@H]1c1cc3nc([C@H]4C[C@H](O)C4)cc(n3n1)N(C)CCNC(=O)CO2 | 0.112
* Cc1ccc2c(c1)C(=O)N1CCCCC1c1cc3nc(N4CCC4)cc(n3n1)N(C)CCNC(=O)CO2 (centres undefined) | 0.064

Read the next record carefully.
Incoming: Entry CN1CCNC(=O)COc2ccc(Cl)cc2C(=O)N2CCCC[C@H]2c2cc3nc([C@H]4C[C@H](O)C4)cc1n3n2 needs its fraction unbound at 4 h, 1 ug/ml filled in; supply it.
Outgoing: 0.093
